Measured values drawn from patent US8765779B2 for this set.

Exercise: state measured Ki for each of the compounds provided.
# subject_of_test: human 5-HT6 receptor (Homo sapiens)
# Construct: host or cells: CHO-K1 cells, stably transfected; membranes prepared in house
# Sequence (P50406 whole entry): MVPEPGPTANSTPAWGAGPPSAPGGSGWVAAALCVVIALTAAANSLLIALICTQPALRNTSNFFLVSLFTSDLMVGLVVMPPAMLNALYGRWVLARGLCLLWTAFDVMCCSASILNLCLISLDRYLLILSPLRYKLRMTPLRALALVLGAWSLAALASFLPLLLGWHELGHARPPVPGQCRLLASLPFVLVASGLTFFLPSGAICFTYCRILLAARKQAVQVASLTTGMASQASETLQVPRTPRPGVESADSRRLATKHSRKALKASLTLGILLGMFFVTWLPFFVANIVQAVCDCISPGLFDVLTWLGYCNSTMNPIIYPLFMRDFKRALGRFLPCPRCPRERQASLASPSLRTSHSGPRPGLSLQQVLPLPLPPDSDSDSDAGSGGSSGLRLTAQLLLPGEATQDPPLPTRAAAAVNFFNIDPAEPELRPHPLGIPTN
# assay_remarks: Human 5-HT6 Receptor Binding Assay ([3H]LSD displacement, scintillation beads)
# recorded_conditions: membranes of CHO-K1 cells with recombinant human 5-HT6, 4 nM [3H]LSD; Table 1, class symbols; read-out: h5-HT6 (Ki)

Give Ki for each of the items listed below.
1. COc1cccc(S(=O)(=O)c2ccc3c(c2)C2CCNCC2O3)c1 (stereo not drawn)
2. O=S(=O)(c1ccc(F)c(Cl)c1)c1ccc2c3c(oc2c1)CNCC3
3. CC12CCNCC1Oc1ccc(OS(=O)(=O)c3ccc4ccccc4c3)cc12 (stereo not drawn)
4. O=S(=O)(c1ccc2c(c1)OC1CNCCC21)c1cc(F)cc(F)c1F (stereo not drawn) [Example 412]
5. COc1ccc(S(=O)(=O)c2ccc3c4c(oc3c2)C(C)(C)NCC4)cc1F
6. CC12CCNCC1Oc1cc(S(=O)(=O)c3cncc(Cl)c3)ccc12 (stereo not drawn)

1. < 0.5 µM
2. < 0.5 µM
3. < 0.5 µM
4. < 0.5 µM
5. < 0.5 µM
6. < 0.5 µM
